- Experimental Target: Acyl-CoA:cholesterol acyltransferase (Oryctolagus cuniculus)
- Sequence (Q95214 whole entry): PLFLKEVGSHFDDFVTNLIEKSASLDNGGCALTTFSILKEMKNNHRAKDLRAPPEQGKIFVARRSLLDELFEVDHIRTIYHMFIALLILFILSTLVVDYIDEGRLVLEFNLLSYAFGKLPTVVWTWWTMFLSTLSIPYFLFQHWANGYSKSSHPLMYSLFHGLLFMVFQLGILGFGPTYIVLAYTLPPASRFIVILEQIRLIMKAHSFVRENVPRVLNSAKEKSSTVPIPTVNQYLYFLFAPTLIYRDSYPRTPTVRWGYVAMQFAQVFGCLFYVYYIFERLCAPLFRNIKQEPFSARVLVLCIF
Reported values of log10 of IC50 for individual entries
Remember, log10 of IC50, in nM.

Consider the following illustrative entries.
* CC(C)c1cccc(C(C)C)c1NC(=O)Nc1nc2ccccc2n1-c1cccc(Cl)c1 | 1.30
* COc1ccccc1-n1c(NC(=O)Nc2c(C(C)C)cccc2C(C)C)nc2ccccc21 | 1.30
* Cc1ncccc1-n1c(NC(=O)Nc2c(C(C)C)cccc2C(C)C)nc2ccccc21 | 2.00
* CC(C)c1cccc(C(C)C)c1NC(=O)Nc1nc2ccccc2n1-c1ccccc1 | 1.82
* CC(C)c1cccc(C(C)C)c1NC(=O)Nc1nc2ccccc2n1-c1ccc(Cl)cc1 | 2.45

--- query ---
Just so you know, measured log10 of IC50 for `CC(C)c1cccc(C(C)C)c1NC(=O)Nc1nc2ccccc2n1-c1ccccc1O` came out at 2.30

====

- Tested on: Cricetinae gen. sp.
- Assay Summary: Compound was tested in vivo at a dose of 10 (mg/kg) for percent inhibition in increased serum total cholesterol in golden hamsters fed with a diet containing 2% cholesterol
- Type: functional, Mesocricetus auratus
Use True when the recorded Reduction is no lower than 80%; use False when it is lower.

Record excerpt, results attached:
- CC(C)c1cccc(C(C)C)c1NC(=O)Nc1nc2ccccc2n1-c1c(Cl)cccc1Cl: False
- CC(C)c1cccc(C(C)C)c1NC(=O)Nc1nc2ccccc2n1-c1ccccc1Br: False
- CC(C)c1cccc(C(C)C)c1NC(=O)Nc1nc2cccnc2n1-c1ccccc1Cl: False

Now for a further compound.
Is Reduction for `CC(C)c1cccc(C(C)C)c1NC(=O)Nc1nc2ccccc2n1-c1ccccc1N(C)C` at or above 80%?
True
